- system_tested: Protein arginine N-methyltransferase 1 (Homo sapiens, UniProt Q99873)
- run_description: Activity at PRMT1 (unknown origin) using [methyl-14C]AdoMet at 0.25 to 200 uM after 60 to 120 mins by tricine gel electrophoresis
- Sequence (Q99873 whole entry, looked up): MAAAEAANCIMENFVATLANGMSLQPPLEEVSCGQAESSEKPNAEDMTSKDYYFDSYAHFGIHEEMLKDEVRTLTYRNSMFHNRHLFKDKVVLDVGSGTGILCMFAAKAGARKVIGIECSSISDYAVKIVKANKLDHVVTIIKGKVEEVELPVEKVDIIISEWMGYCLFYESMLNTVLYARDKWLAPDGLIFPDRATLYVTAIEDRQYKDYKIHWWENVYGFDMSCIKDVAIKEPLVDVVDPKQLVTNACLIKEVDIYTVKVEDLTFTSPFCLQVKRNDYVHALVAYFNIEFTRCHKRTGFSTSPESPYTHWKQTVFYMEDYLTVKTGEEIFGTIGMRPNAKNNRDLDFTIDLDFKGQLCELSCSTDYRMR
The source made the active and inactive calls. The calls are words filed in the database; no cut-off is given here. Starred links: 1 amine or outer side, 2 acyl side, 3 side chain; linkers in the order of their positions; H or OH if unused. Non-standard residues stand in square brackets, D forms with d. Residues, ends and D or L forms follow the SMILES beside them. X3 = N/C(=N\Cc1ccccc1)NCCC[C@H](N[*:1])C(=O)[*:2]; X4 = NC(NCCC[C@H](N[*:1])C(=O)[*:2])=[N+]1CCCC1
measure_name: Activity

{"molecule": "N=C(N)NCCC[C@H](NC(=O)CN)C(=O)N[C@@H](CCCCN)C(=O)N[C@@H](CCCCN)C(=O)N[C@@H](CCCNC(N)=[N+]1CCCC1)C(=O)N[C@@H](CCCNC(=N)N)C(=O)N[C@@H](CCC(N)=O)C(=O)N[C@@H](CCCNC(=N)N)C(=O)N[C@@H](CCCNC(=N)N)C(=O)N[C@@H](CCCNC(=N)N)C(=O)N1CCC[C@H]1C(=O)N1CCC[C@H]1C(=O)N[C@@H](CCC(N)=O)C(=O)O (H-GRKK[X4]RQRRRPPQ-OH)", "system_tested": "Protein arginine N-methyltransferase 1 (Homo sapiens, UniProt Q99873)", "endpoint_result": "Active"}
{"molecule": "N=C(N)NCCC[C@H](NC(=O)CN)C(=O)N[C@@H](CCCCN)C(=O)N[C@@H](CCCCN)C(=O)N[C@@H](CCCN/C(N)=N/Cc1ccccc1)C(=O)N[C@@H](CCCNC(=N)N)C(=O)N[C@@H](CCC(N)=O)C(=O)N[C@@H](CCCNC(=N)N)C(=O)N[C@@H](CCCNC(=N)N)C(=O)N[C@@H](CCCNC(=N)N)C(=O)N1CCC[C@H]1C(=O)N1CCC[C@H]1C(=O)N[C@@H](CCC(N)=O)C(=O)O (H-GRKK[X3]RQRRRPPQ-OH)", "system_tested": "Protein arginine N-methyltransferase 1 (Homo sapiens, UniProt Q99873)", "endpoint_result": "Active"}
{"molecule": "CC/N=C(\\N)NCCC[C@H](NC(=O)[C@H](CCCCN)NC(=O)[C@H](CCCCN)NC(=O)[C@H](CCCNC(=N)N)NC(=O)CN)C(=O)N[C@@H](CCCNC(=N)N)C(=O)N[C@@H](CCC(N)=O)C(=O)N[C@@H](CCCNC(=N)N)C(=O)N[C@@H](CCCNC(=N)N)C(=O)N[C@@H](CCCNC(=N)N)C(=O)N1CCC[C@H]1C(=O)N1CCC[C@H]1C(=O)N[C@@H](CCC(N)=O)C(=O)O", "system_tested": "Protein arginine N-methyltransferase 1 (Homo sapiens, UniProt Q99873)", "endpoint_result": "Active"}

* * *

- system_tested: Protein arginine N-methyltransferase 6 (Homo sapiens)
- run_description: Activity at PRMT6 (unknown origin) using [methyl-14C]AdoMet at 0.25 to 200 uM after 60 to 120 mins by tricine gel electrophoresis
- Sequence (Q96LA8 whole entry, looked up): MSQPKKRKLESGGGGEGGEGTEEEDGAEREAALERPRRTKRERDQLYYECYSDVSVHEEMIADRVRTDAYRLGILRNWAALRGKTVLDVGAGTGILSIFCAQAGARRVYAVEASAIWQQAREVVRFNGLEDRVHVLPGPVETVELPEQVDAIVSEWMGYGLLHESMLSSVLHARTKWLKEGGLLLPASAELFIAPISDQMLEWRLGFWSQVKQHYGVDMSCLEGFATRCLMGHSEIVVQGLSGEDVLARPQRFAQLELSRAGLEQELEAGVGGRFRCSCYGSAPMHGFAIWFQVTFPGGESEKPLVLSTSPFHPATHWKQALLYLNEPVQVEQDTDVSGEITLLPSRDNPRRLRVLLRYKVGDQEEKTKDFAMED
Active and inactive are the calls of the source. The calls are words filed in the database; no cut-off is given here. Starred links: 1 amine or outer side, 2 acyl side, 3 side chain; linkers in the order of their positions; H or OH if unused. Non-standard residues stand in square brackets, D forms with d. Residues, ends and D or L forms follow the SMILES beside them. X2 = N/C(=N\CC(F)(F)F)NCCC[C@H](N[*:1])C(=O)[*:2]; X3 = N/C(=N\Cc1ccccc1)NCCC[C@H](N[*:1])C(=O)[*:2]; X4 = NC(NCCC[C@H](N[*:1])C(=O)[*:2])=[N+]1CCCC1

{"compound": "N=C(N)NCCC[C@H](NC(=O)CN)C(=O)N[C@@H](CCCCN)C(=O)N[C@@H](CCCCN)C(=O)N[C@@H](CCCNC(N)=[N+]1CCCC1)C(=O)N[C@@H](CCCNC(=N)N)C(=O)N[C@@H](CCC(N)=O)C(=O)N[C@@H](CCCNC(=N)N)C(=O)N[C@@H](CCCNC(=N)N)C(=O)N[C@@H](CCCNC(=N)N)C(=O)N1CCC[C@H]1C(=O)N1CCC[C@H]1C(=O)N[C@@H](CCC(N)=O)C(=O)O (H-GRKK[X4]RQRRRPPQ-OH)", "system_tested": "Protein arginine N-methyltransferase 6 (Homo sapiens)", "Activity": "Active"}
{"compound": "N=C(N)NCCC[C@H](NC(=O)CN)C(=O)N[C@@H](CCCCN)C(=O)N[C@@H](CCCCN)C(=O)N[C@@H](CCCN/C(N)=N/CC(F)(F)F)C(=O)N[C@@H](CCCNC(=N)N)C(=O)N[C@@H](CCC(N)=O)C(=O)N[C@@H](CCCNC(=N)N)C(=O)N[C@@H](CCCNC(=N)N)C(=O)N[C@@H](CCCNC(=N)N)C(=O)N1CCC[C@H]1C(=O)N1CCC[C@H]1C(=O)N[C@@H](CCC(N)=O)C(=O)O (H-GRKK[X2]RQRRRPPQ-OH)", "system_tested": "Protein arginine N-methyltransferase 6 (Homo sapiens)", "Activity": "Active"}
{"compound": "N=C(N)NCCC[C@H](NC(=O)CN)C(=O)N[C@@H](CCCCN)C(=O)N[C@@H](CCCCN)C(=O)N[C@@H](CCCN/C(N)=N/Cc1ccccc1)C(=O)N[C@@H](CCCNC(=N)N)C(=O)N[C@@H](CCC(N)=O)C(=O)N[C@@H](CCCNC(=N)N)C(=O)N[C@@H](CCCNC(=N)N)C(=O)N[C@@H](CCCNC(=N)N)C(=O)N1CCC[C@H]1C(=O)N1CCC[C@H]1C(=O)N[C@@H](CCC(N)=O)C(=O)O (H-GRKK[X3]RQRRRPPQ-OH)", "system_tested": "Protein arginine N-methyltransferase 6 (Homo sapiens)", "Activity": "Active"}

* * *

As an illustration, consider measured pKi for compounds on Protein arginine N-methyltransferase 6 (Homo sapiens, UniProt Q96LA8).
Starred links: 1 amine or outer side, 2 acyl side, 3 side chain; linkers in the order of their positions; H or OH if unused. Non-standard residues stand in square brackets, D forms with d. Residues, ends and D or L forms follow the SMILES beside them. X2 = N/C(=N\CC(F)(F)F)NCCC[C@H](N[*:1])C(=O)[*:2]; X3 = N/C(=N\Cc1ccccc1)NCCC[C@H](N[*:1])C(=O)[*:2]; X4 = NC(NCCC[C@H](N[*:1])C(=O)[*:2])=[N+]1CCCC1
Convention used: pKi is expressed as -log10 of the molar concentration.

Solved cases below.
{"compound": "N=C(N)NCCC[C@H](NC(=O)CN)C(=O)N[C@@H](CCCCN)C(=O)N[C@@H](CCCCN)C(=O)N[C@@H](CCCN/C(N)=N/Cc1ccccc1)C(=O)N[C@@H](CCCNC(=N)N)C(=O)N[C@@H](CCC(N)=O)C(=O)N[C@@H](CCCNC(=N)N)C(=O)N[C@@H](CCCNC(=N)N)C(=O)N[C@@H](CCCNC(=N)N)C(=O)N1CCC[C@H]1C(=O)N1CCC[C@H]1C(=O)N[C@@H](CCC(N)=O)C(=O)O (H-GRKK[X3]RQRRRPPQ-OH)", "system_tested": "Protein arginine N-methyltransferase 6 (Homo sapiens, UniProt Q96LA8)", "pKi": 4.70}
{"compound": "N=C(N)NCCC[C@H](NC(=O)CN)C(=O)N[C@@H](CCCCN)C(=O)N[C@@H](CCCCN)C(=O)N[C@@H](CCCNC(N)=[N+]1CCCC1)C(=O)N[C@@H](CCCNC(=N)N)C(=O)N[C@@H](CCC(N)=O)C(=O)N[C@@H](CCCNC(=N)N)C(=O)N[C@@H](CCCNC(=N)N)C(=O)N[C@@H](CCCNC(=N)N)C(=O)N1CCC[C@H]1C(=O)N1CCC[C@H]1C(=O)N[C@@H](CCC(N)=O)C(=O)O (H-GRKK[X4]RQRRRPPQ-OH)", "system_tested": "Protein arginine N-methyltransferase 6 (Homo sapiens, UniProt Q96LA8)", "pKi": 4.11}

Okay, now this compound:
Req: Supply recorded pKi for N=C(N)NCCC[C@H](NC(=O)CN)C(=O)N[C@@H](CCCCN)C(=O)N[C@@H](CCCCN)C(=O)N[C@@H](CCCN/C(N)=N/CC(F)(F)F)C(=O)N[C@@H](CCCNC(=N)N)C(=O)N[C@@H](CCC(N)=O)C(=O)N[C@@H](CCCNC(=N)N)C(=O)N[C@@H](CCCNC(=N)N)C(=O)N[C@@H](CCCNC(=N)N)C(=O)N1CCC[C@H]1C(=O)N1CCC[C@H]1C(=O)N[C@@H](CCC(N)=O)C(=O)O (H-GRKK[X2]RQRRRPPQ-OH) here.
Resp: 4.36

* * *

- system_tested: Protein arginine N-methyltransferase 1 (Homo sapiens)
- run_description: Inhibition of PRMT1 (unknown origin) using AdoMet by Michaelis-Menten equation analysis
- Sequence (Q99873 whole entry): as the sequence (Q99873 whole entry, looked up) above
measure_name: Ki (µM)
Kindly answer with a numeric value in µM, unit omitted.

Req: Look up and report Ki, with Protein arginine N-methyltransferase 1 (Homo sapiens) as system, for `H-GRKKARQRRRPPQ-OH`
Resp: 7.6
